# Lookup of reported koff keyed by entry
target: T1, LILRB4 (Beijing ACROBiosystems, article number LI4-H52H7, 6xHis label) (human, UniProt Q8NHJ6 22-259); experiment: SPR, BIACORE 8K; antibody captured on Protein A chip, LILRB4-6xHis as analyte
T1 construct: Analyte (mobile phase) in the BIACORE 8K assay; also called Human LILRB4; not shown: 6xHis label
// note: answer is a bare numeric in s⁻¹

# count of solved cases: 3
1. humanized antibody RB4-G1-018 (antibody, human IgG1, kappa, V domains shown) VH: QVQLVQSGAEVKKPGASVKVSCKASGYTFTSYWMHWVRQAPGQGLEWIGEINPSNGRTNYNEKFKSRATLTVDKSTSTAYMELSSLRSEDTAVYYCARDRYDEGNAMDYWGQGTTVTVSS VL: DIQMTQSPSSLSASVGDRVTITCRASQDITNYLNWYQQKPGKAPKLLIYYTSRLHSGVPSRFSGSGSGTEYTLTISSLQPDDFATYYCQQGDTLPRTFGQGTRLEIKR :: 0.00433
2. humanized antibody RB4-G1-019 (antibody, human IgG1, kappa, V domains shown) VH: QVQLVQSGAEVKKPGASVKVSCKASGYTFTSYWMHWVRQAPGQGLEWMGEINPSNGRTNYNEKFKSRVTLTVDKSTSTVYMELSSLRSEDTAVYYCARDRYDEGNAMDYWGQGTTVTVSS VL: DIQMTQSPSSLSASVGDRVTITCRASQDITNYLNWYQQKPGKAPKLLIYYTSRLHSGVPSRFSGSGSGTEYTLTISSLQPDDFATYYCQQGDTLPRTFGQGTRLEIKR :: 0.00343
3. humanized antibody RB4-G1-022 (antibody, human IgG1, kappa, V domains shown) VH: QVQLVQSGAEVKKPGASVKVSCKASGYTFTSYWMHWVRQAPGQGLEWIGEINPSNGRTNYNEKFKSRATLTVDKSTSTAYMELSSLRSEDTAVYYCARDRYDEGNAMDYWGQGTTVTVSS VL: DIQMTQSPSSLSASVGDRVTITCRASQDITNYLNWYQQKPGKAPKLLIYYTSRLHSGVPSRFSGSGSGTDYTFTISSLQPEDIATYYCQQGDTLPRTFGQGTRLEIKR :: 0.00418

Now let's try a different one.
Reported koff, binder humanized antibody RB4-G1-020 (antibody, human IgG1, kappa, V domains shown) VH: QVQLVQSGAEVKKPGASVKVSCKASGYTFTSYWMHWVRQAPGQGLEWMGEINPSNGRTNYNEKFKSRVTMTRDTSTSTVYMELSSLRSEDTAVYYCARDRYDEGNAMDYWGQGTTVTVSS VL: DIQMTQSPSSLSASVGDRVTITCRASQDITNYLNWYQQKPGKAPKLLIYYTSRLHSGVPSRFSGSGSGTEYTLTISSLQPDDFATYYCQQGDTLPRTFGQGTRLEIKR : ____
0.00834
